B1: EPB41L3 (parent)
chain: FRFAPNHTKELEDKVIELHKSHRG

Variants of: B1
procedureText: protein stability index of a GFP-peptide fusion (GPS, HEK-293T) (PSI 1-6); higher = more stable;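 further: lentivirally expressed fusions sorted by FACS into six bins by GFP to DsRed ratio, PSI derived from sequencing read proportions per bin multiplied by bin number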
runParameters: c terminus: a fixed tail appended
Can you tell me protein stability index for the items I'm about to list?
// response body must contain only the number

In: # return recorded protein stability index for entry FRFAPNHTKKLEDKVIELHKSHRG [E10K]
Out: 2.59

In: Return reported protein stability index. Input variant: DRFAPNHTKELEDKVIELHKSHRG [F1D]
Out: 4.4

In: For FRFAPNHTKELEDKVIEMHKSHRG [L18M] , write its protein stability index.
Out: 3.06

In: Give the measured protein stability index for FRFAPNHTKELEDKVPELHKSHRG [I16P]
Out: 2.76

In: Indicate its recorded protein stability index; the variant in question is FRFAKNHTKELEDKVIELHKSHRG [P5K]
Out: 3.47

In: State its protein stability index: FRFAPNHTKELEDKVIELHKSGRG [H22G]
Out: 1.91

In: Consider the variant FRFAPNHTKELEDKVIELHKSHRQ [G24Q] and give its recorded protein stability index.
Out: 2.74

In: Return protein stability index for the following variant: FRFAPNHTKELEDKPIELHKSHRG [V15P]
Out: 2.33

In: // Input: FRFAPNHTKELEDKVFELHKSHRG [I16F] . Output its protein stability index only.
Out: 1.77

In: Read off the recorded protein stability index for FRFAPNHIKELEDKVIELHKSHRG [T8I]
Out: 2.49

In: Fill in reported protein stability index for this entry: FRFAPNHTKELEDKVIELHKSHRW [G24W]
Out: 1.84

In: For the variant FRFAPNHTDELEDKVIELHKSHRG [K9D] , give its reported protein stability index.
Out: 1.82

In: Please list protein stability index recorded for the variant FRFAPNHTKELELKVIELHKSHRG [D13L]
Out: 2.2

In: Consider the variant FRFAPNHTKEHEDKVIELHKSHRG [L11H] . State its measured protein stability index.
Out: 2.29

In: Could you please provide reported protein stability index for FRFAPNHTKELEDKVIELHKSHVG [R23V] ? Thanks!
Out: 1.83

In: Tell me its protein stability index given FRFAPNHTKPLEDKVIELHKSHRG [E10P] as the entry.
Out: 1.63

In: Return protein stability index for the following variant: FFFAPNHTKELEDKVIELHKSHRG [R2F]
Out: 2.81

In: Fill in protein stability index for record QRFAPNHTKELEDKVIELHKSHRG [F1Q]
Out: 3.89

In: Identify protein stability index associated with the variant FRFAPNHTKEGEDKVIELHKSHRG [L11G]
Out: 2.89

In: Give the value of protein stability index reported for the following: FRLAPNHTKELEDKVIELHKSHRG [F3L]
Out: 3.48

In: Indicate the recorded protein stability index value for this variant: FRFAPNHTKELEDKVIELGKSHRG [H19G]
Out: 1.88

In: Give protein stability index for FRFAPNHYKELEDKVIELHKSHRG [T8Y]
Out: 2.05
